Target: T1, recombinant canine OX40L ECD-TNCc-HIS protein (canine)
T1 construct: also called Trimeric OX40L probe (HIS tag); trimeric canine OX40L
T1 chain: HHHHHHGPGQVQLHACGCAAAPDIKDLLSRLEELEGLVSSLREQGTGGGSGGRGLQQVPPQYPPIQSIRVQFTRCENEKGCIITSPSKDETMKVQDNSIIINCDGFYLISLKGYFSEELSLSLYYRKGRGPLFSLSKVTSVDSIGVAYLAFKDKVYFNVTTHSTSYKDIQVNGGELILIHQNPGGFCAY
Experiment: SPR KD1, bivalent analyte model
Experimental: Affinity (Kd) of OX40L antibodies is measured by SPR, using a recombinant canine OX40L ECD-TNCc-HIS protein (Seq ID 811) as the capturing agent (FIG. 5B). Functional affinity is determined using a Biakore 8K (Cytiva). in brief, purified OX40L ECD-TNCc-HIS protein is covalently bound at low density to the surface of a CM5 sensor chip (Cytiva) by amine coupling, using the manufacturer's recommended protocol. […]
measured parameter: pKd
In simple prose, pKd is minus the logarithm base ten of a concentration in moles per litre.

Incoming: Return value of pKd for input PMX098 (antibody, V domains shown) VH: EVQLVESGGDLVKPGGSLRLSCVASGFTFNTYHMNWVRQAPGKGLHWVAFINSGGSGTSYADTVKGRFTISRDYAKNTLYLQMNSLRAEDTAVYYCASGSIWTHFDYWGQGTLVTVSS VL: SYVLTQLPSVSLTLRQTAHITCGGDIIGSKSVYWYQQKLGQAPVLIIYRDNNRPTGIPERFSGASSGNTATLTISGALAEDEADYYCQVWDSSTQAMFGGGTHLTVL , no commentary.
Outgoing: 7.85

Incoming: Return value of pKd for input PMX061 (antibody, V domains shown, also called PMX61) VH: EVQLVESGGDLVKPGGSLRLSCVASGFTFSSFPMSWVRQAPGKGLQWVAYINSGGSSTSYADVVKGRFTISRDNAKNTLYLQMNSLRADDTAVYYCARTFPTVATDNWFYYWGQGTLVTVSS VL: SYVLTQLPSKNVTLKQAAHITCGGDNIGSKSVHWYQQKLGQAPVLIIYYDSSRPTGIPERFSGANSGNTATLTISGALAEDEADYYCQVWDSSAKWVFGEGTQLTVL , no commentary.
Outgoing: 7.05

Incoming: Return value of pKd for input PMX293 (antibody, V domains shown) VH: EVRLLESGGDLVKPAGSLRLSCAVSGFTFSTYDMSWVRQAPGKGLQWVAYITYDGRTTSYTDTVKGRFTVSRDNAKNMLYLKMNSLRSEDAAVYYCAKAHRGWFFDHWGQGTLVTVSS VL: SYVLTQLPSVSVTLRQTARITCGGDSIGSKNVYWYQQKLGQAPVLIIYDDTSRPSGIPERFSGANSGTTATLTISGALAEDEADYYCQVWDSSTGVFGGGTHLTVL , no commentary.
Outgoing: 9.00

Incoming: Return value of pKd for input PMX042 (antibody, V domains shown, also called PMX42) VH: EVQLVESGGDLVKPGGSLRLSCVASGFTFSSYHMSWVRQAPGKGLQWVAYITSGGSTTSYADAVKGRFTISRDNAKNTLYLQMDSLRADDTAVYYCASDLVLLLGGADYWGQGTLVTVSS VL: SYELTQPPSVNVTLRETAHITCGGDSIGRKYVQWIQQHPGQAPVVIIYKDYNRPTGIPERFSGANSGNTATLTISGALAEDEADYYCQVGDSGTKAVFGGGTHLTVL , no commentary.
Outgoing: 6.56

Incoming: Return value of pKd for input PMX154 (antibody, V domains shown) VH: EVQLVESGGDLVKPEGSLRLSCVVSGFTFSGFDMSWVRQAPGKGLQWVAYISTDGRSTGYTDAVKGRFTISRDNVKNTLYLQMNSLRTEDTAVYYCAKETRHWGFDYWGQGTLVIVSS VL: SYVLTQLSSVSVSLRQTAHITCGGDSIGRKNVYWHQQKLGRAPILIIYDDSSRPSGIPERFSGANSGNTATLTISGALAEDEAAYYCQVWDSSTSVFGGGTHLTVL , no commentary.
Outgoing: 7.81

Incoming: Return value of pKd for input PMX294 (antibody, V domains shown) VH: EVQLVESGGDLVKPEGSLRLSCAVSGFTFSSNDMSWVRQAPGKGLQWVAYITYDGRSTSYTDIVKGRFTVSRDNAKNTLYLQMNSLRSEDAAVYYCAKAQRGWFFDYWGQGTLVTVSS VL: SYVLTQLPSVSVTLRQTARITCGGDSIGSKNVYWYQQKLGQAPVLIIYDDDSRPSGIPERISGANSGNTATLTISGALAEDEADYYCQVWDSSTGVFGGGTHLTVL , no commentary.
Outgoing: 7.84

Incoming: Return value of pKd for input PMX097 (antibody, V domains shown, also called PMX97) VH: EVQLVESGGDLVRPGGSLRLSCVASGITFSSYHMSWVRQAPGKGLQWVALINSGGSSITYADVVRGRFTISRDYAKNTLYLQMNSLRAEDTAVYYCASGSIWTHFDYWGQGTRVTVSS VL: SFVLTQLPSVSVTLRQTARITCGGDIIGSKNVYWYQQRLGQAPVLIIYRDSNRPTGIPERFSGASSGNTATLTISGALAEDEADYYCQVWDNSNKAMFGGGTHLTVL , no commentary.
Outgoing: 9.31

Incoming: Return value of pKd for input PMX029 (antibody, V domains shown, also called PMX29) VH: EVQLVESGGDLVKPGGSLRLSCVASGFTFSSYHMNWVRQAPGKGLQWVAYINTGGSRTSYADAVKGRFTISRDNAKNTLYLQMNSLRAEDTAVYYCANNYWDNFDSWGQGTLVTVSS VL: SYELTQPPSVNVTLRETAHITCGGDSIGSKYVQWIQQNPGQAPVVIIYKDTNRPTGIPERFSGANSGNTATLTISGALAEDEADYYCQVGDSGTKASVFGGGTHLTVL , no commentary.
Outgoing: 7.29

Incoming: Return value of pKd for input PMX045 (antibody, V domains shown, also called PMX45) VH: EVQLVESGGDLVKPGGSLRLSCVASGFTFSSYHMTWVRQAPGKGLQWVAYITSGGITTSYADAVKGRFTISRDNAKNTLYLQMSSLRAEDTAMYYCARDLVLLLGGADYWGQGTLVTVSS VL: SYELTQPPSVNVTLRETAHITCGGDSIGRKYVQWIQQNPGQAPVVIIYKDSNRPTGIPERFSGANSGNTATLTISGALAEDEADYYCQVGDSGTKAVFGGGTHLTVL , no commentary.
Outgoing: 7.98

Incoming: Return value of pKd for input PMX035 (antibody, V domains shown, also called PMX35) VH: EVQLVESGGDLVKPGGSLRLSCVASGFTFSNFEMYWVRQAPGKGLEWVARIYKSGSTTYHSERVKGRFTISKDSATNMAFLQMNSLRAEDTAVYYCTSASSTGWRFDYWGQGTLVTVSS VL: SYVLTQLPSVSVTLRQTARITCGGDSIGRKNVCWFQQKLGQAPVLIIYDDNSRPSGIPERFSGANSGNTATLTISGALAEDEADYYCQVWDSSTGIFGGGTHLTVL , no commentary.
Outgoing: 6.57
